Data provenance: the RNAGym collection of RNA variant scans (doi:10.7554/elife.80360)

self-cleavage: recorded values
B1: HDV Ribozyme (parent)
chain: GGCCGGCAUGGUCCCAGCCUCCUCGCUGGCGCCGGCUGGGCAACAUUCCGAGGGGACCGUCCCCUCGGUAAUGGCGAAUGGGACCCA

- Variants of: B1
- protocol text: self-cleavage, relative activity (ratio to wild type); higher = more cleavage; co-transcriptional

variant string	self-cleavage
G25U U46C	0
G6A G54C	0.672
A70U A77U	0.35
C7U G59C	0.848
G1U G31C	0.356
G29A G68A	0.107
G2C G31U	0.109
C13G G34C	0.178
C22A U69A	0.284
G34A C49U	0.3
C57A G68A	0.819
